Molecular target: Gal(b1-4)GlcNAc(b1-3)Gal(b1-4)GlcNAc(b1-3)Gal(b1-4)GlcNAc(b1-3)Gal(b1-4)GlcNAc(b1-3)Gal(b1-4)GlcNAc(b1-2)[Gal(b1-4)GlcNAc(b1-3)Gal(b1-4)GlcNAc(b1-3)Gal(b1-4)GlcNAc(b1-3)Gal(b1-4)GlcNAc(b1-3)Gal(b1-4)GlcNAc(b1-6)]Man(a1-6)[Gal(b1-4)GlcNAc(b1-3)Gal(b1-4)GlcNAc(b1-3)Gal(b1-4)GlcNAc(b1-3)Gal(b1-4)GlcNAc(b1-3)Gal(b1-4)GlcNAc(b1-2)Man(a1-3)]Man(b1-4)GlcNAc(b1-4)[Fuc(a1-6)]GlcNAc
Assay: glycan array binding signal (z-score within array); higher = stronger binding
Conditions: glycan notation: IUPAC condensed, linker removed
This is one part of a sample in which the strongest signals are shown more often than they occur.
Decision: glycan array binding signal (z-score) compared against 4; not below it gives MET, below it gives NOT MET.

Please tell me: is the binder SP15308C-bot-338-23-338 (Bacteroides ovatus) (protein) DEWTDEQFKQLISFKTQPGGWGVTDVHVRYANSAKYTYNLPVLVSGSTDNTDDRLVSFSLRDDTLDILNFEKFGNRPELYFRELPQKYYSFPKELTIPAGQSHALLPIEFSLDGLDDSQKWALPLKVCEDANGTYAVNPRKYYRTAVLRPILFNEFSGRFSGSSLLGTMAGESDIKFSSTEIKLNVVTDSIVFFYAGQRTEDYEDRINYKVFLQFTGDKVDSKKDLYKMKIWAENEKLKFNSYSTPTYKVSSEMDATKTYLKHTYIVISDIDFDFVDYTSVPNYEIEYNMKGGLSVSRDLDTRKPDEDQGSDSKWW at or over 4 in terms of glycan array binding signal (z-score)?
MET

For this binder, is measured glycan array binding signal (z-score) 4 or higher? Gal 1 (Mus musculus), P16045 (protein) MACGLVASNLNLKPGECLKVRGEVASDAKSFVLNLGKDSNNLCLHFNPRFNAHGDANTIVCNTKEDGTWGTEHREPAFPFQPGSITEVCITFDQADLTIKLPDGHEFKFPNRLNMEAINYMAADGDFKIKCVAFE
NOT MET

Please tell me: is the binder CLECb-Precomplexed (Mus musculus), P43025 (protein) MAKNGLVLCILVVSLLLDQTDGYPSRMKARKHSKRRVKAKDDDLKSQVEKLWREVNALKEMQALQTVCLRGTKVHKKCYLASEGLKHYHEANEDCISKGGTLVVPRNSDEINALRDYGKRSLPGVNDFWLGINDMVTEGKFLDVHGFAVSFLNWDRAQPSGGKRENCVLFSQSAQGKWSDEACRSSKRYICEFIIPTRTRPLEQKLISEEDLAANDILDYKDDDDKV at or over 4 in terms of glycan array binding signal (z-score)?
MET

Answer whether glycan array binding signal (z-score) of XTP3-B-MRH2 (Homo sapiens), Q96DZ1 (protein) EFLSGSYCFRGGVGWWKYEFCYGKHVHQYHEDKDSGKTSVVVGTWNQEEHIEWAKKNTARAYHLQDDGTQTVRMVSHFYGNGDICDITDKPRQVTVKLKCKESDSPHAVTVYMLEPHSCQYILGVESPVICKILDTA is greater than or equal to 4.
NOT MET

Can DrGal9 (Danio rerio) (protein) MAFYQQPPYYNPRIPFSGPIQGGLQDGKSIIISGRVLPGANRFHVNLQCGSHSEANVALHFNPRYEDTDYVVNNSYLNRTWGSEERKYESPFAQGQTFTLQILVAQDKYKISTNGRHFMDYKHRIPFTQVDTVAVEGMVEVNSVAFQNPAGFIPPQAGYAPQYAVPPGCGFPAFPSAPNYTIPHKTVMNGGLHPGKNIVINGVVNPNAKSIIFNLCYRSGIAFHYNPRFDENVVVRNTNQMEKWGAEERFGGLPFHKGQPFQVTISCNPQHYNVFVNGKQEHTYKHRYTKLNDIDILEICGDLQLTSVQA be said to have glycan array binding signal (z-score) at or above 4?
NOT MET
